experiment: Cytotoxicity against mouse L929 cells assessed as cell viability at 128 ug/ml after 24 hrs by MTT assay relative to control; type: cell-based; conditions: at 128 µg/mL, read-out: Activity
Residues, ends and D or L forms follow the SMILES beside them. ξ: configuration not given here. *: point of attachment. Lipoyl(6ξ) = O=C(CCCCC1CCSS1)*
measure: viability at 24 h, 128 ug/ml
# include the unit after the value

Using known records, supply viability at 24 h, 128 ug/ml for CC[C@H](C)[C@H](NC(=O)[C@H](CCCNC(=N)N)NC(=O)CCCCC1CCSS1)C(=O)N[C@@H](Cc1c[nH]c2ccccc12)C(=O)N[C@H](C(=O)N[C@H](C(=O)N[C@@H](Cc1c[nH]c2ccccc12)C(=O)N[C@@H](CCCNC(=N)N)C(=O)N[C@@H](CCCNC(=N)N)C(N)=O)[C@@H](C)CC)C(C)C (stereo partly specified) ({Lipoyl(6ξ)}-RIWVIWRR-NH2)
80.1%

====

test: Cytotoxicity against mouse L929 cells assessed as cell viability at 128 ug/ml after 24 hrs by MTT assay relative to control; type: cell-based; conditions: at 128 µg/mL, read-out: Activity
measure: viability at 24 h, 128 ug/ml
Write down the value, and be sure its unit follows.

Report viability at 24 h, 128 ug/ml, nothing else, for this substance: H-RIWVIWRR-NH2
85.7%

====

assay: Cytotoxicity against mouse L929 cells assessed as cell viability at 64 ug/ml after 24 hrs by MTT assay relative to control; format: cell-based; conditions: at 64 µg/mL, read-out: Activity
Residues, ends and D or L forms follow the SMILES beside them. ξ: configuration not given here. *: point of attachment. Lipoyl(6ξ) = O=C(CCCCC1CCSS1)*
measure: viability at 24 h, 64 ug/ml (%)
Quick reminder: number only, in %, skip the unit.

Name the recorded viability at 24 h, 64 ug/ml of the molecule listed here: CC[C@H](C)[C@H](NC(=O)[C@H](CCCNC(=N)N)NC(=O)CCCCC1CCSS1)C(=O)N[C@@H](Cc1c[nH]c2ccccc12)C(=O)N[C@H](C(=O)N[C@H](C(=O)N[C@@H](Cc1c[nH]c2ccccc12)C(=O)N[C@@H](CCCNC(=N)N)C(=O)N[C@@H](CCCNC(=N)N)C(N)=O)[C@@H](C)CC)C(C)C (stereo partly specified) ({Lipoyl(6ξ)}-RIWVIWRR-NH2)
84.9

====

assay: Cytotoxicity against mouse L929 cells assessed as cell viability at 32 ug/ml after 24 hrs by MTT assay relative to control; type: cell-based; conditions: at 32 µg/mL, read-out: Activity
Residues, ends and D or L forms follow the SMILES beside them. ξ: configuration not given here. *: point of attachment. Lipoyl(6ξ) = O=C(CCCCC1CCSS1)*
measure: viability at 24 h, 32 ug/ml (%)
Numeric only. Scale: %

Report viability at 24 h, 32 ug/ml for CC[C@H](C)[C@H](NC(=O)[C@H](CCCNC(=N)N)NC(=O)CCCCC1CCSS1)C(=O)N[C@@H](Cc1c[nH]c2ccccc12)C(=O)N[C@H](C(=O)N[C@H](C(=O)N[C@@H](Cc1c[nH]c2ccccc12)C(=O)N[C@@H](CCCNC(=N)N)C(=O)N[C@@H](CCCNC(=N)N)C(N)=O)[C@@H](C)CC)C(C)C (stereo partly specified) ({Lipoyl(6ξ)}-RIWVIWRR-NH2)
89.4
